Data provenance is PubChem BioAssay (NCI).

# Tested on: SW-620 colon
# Measurement Notes: NCI tumour cell line growth inhibition, 48 h; in the data active = GI50 below about 0.43 µM; inactive = the rest
Possible outcomes: active, inactive

- Structure String: "CCc1c(C#N)c(S[C@@H](C(N)=O)c2ccccc2)nc(N(C)C)c1C#N"
  Discrete Label: "inactive"
- Structure String: "Nc1c(Br)cc(Br)c2c1[nH]c(=O)c1ccccc12"
  Discrete Label: "inactive"
- Structure String: "CC(C)[C@H](CO)Nc1nc(Nc2ccc(C(=O)NCCNS(=O)(=O)c3cccc4c(N(C)C)cccc34)c(Cl)c2)c2ncn(C(C)C)c2n1"
  Discrete Label: "inactive"
- Structure String: "O=C1C(Cl)=C(Nc2cccc(Cl)c2)C(=O)N1Cc1ccccc1Cl"
  Discrete Label: "inactive"
- Structure String: "CC(=O)[CH-]C(=O)c1ccccc1.CC(=O)[CH-]C(=O)c1ccccc1.CC1(C)C2CCC1(C)C([O-])C2.CC1(C)C2CCC1(C)C([O-])C2.[Ti+4]"
  Discrete Label: "inactive"
- Structure String: "O=C(CNc1ccc2c(c1)C(=O)c1ccccc1C2=O)Nc1ccc2c(c1)C(=O)c1ccccc1C2=O"
  Discrete Label: "active"
- Structure String: "O=c1c2ccccc2n(C[C@H]2CO2)c2ccccc12"
  Discrete Label: "inactive"
- Structure String: "O=C1C(=O)c2ccccc2C(O)=C1CC=C(Br)Br"
  Discrete Label: "inactive"
- Structure String: "CN(C)c1ccc([O][Bi]([Cl])[Cl])cc1"
  Discrete Label: "inactive"
- Structure String: "O=C(c1ccco1)c1nc2cc(Cl)ccc2[n+]([O-])c1C(F)(F)F"
  Discrete Label: "inactive"
- Structure String: "CCOc1ccc(-c2nonc2NC(=O)c2cccc(C)c2)cc1OCC"
  Discrete Label: "inactive"
- Structure String: "O=C(CN1CCN(CCCOc2c(-c3ccccc3)oc3ccccc3c2=O)CC1)Nc1ccc(Cl)cc1C(=O)c1ccccc1Cl"
  Discrete Label: "active"

---

# Test system: HOP-62 NSCLC
# Measurement Notes: NCI tumour cell line growth inhibition, 48 h

- Compound: "O=C1SS(=O)c2ccccc21 (stereo not drawn)"
  Measured On: "HOP-62 NSCLC"
  TGI: "> 100 µM"
- Compound: "[O-][n+]1onc2c1CCC(=N\\O)/C2=N/Nc1ccccc1"
  Measured On: "HOP-62 NSCLC"
  TGI: "> 100 µM"
- Compound: "CC(=O)[C@@]1(O)CC[C@H]2[C@@H]3C[C@H](C)C4=CC(=O)CC[C@]4(C)[C@H]3[C@@H](O)C[C@@]21C"
  Measured On: "HOP-62 NSCLC"
  TGI: "> 100 µM"
- Compound: "CC(C)[C@H](CO)Nc1nc(Nc2ccc(C(=O)NCCNS(=O)(=O)c3cccc4c(N(C)C)cccc34)c(Cl)c2)c2ncn(C(C)C)c2n1"
  Measured On: "HOP-62 NSCLC"
  TGI: "> 100 µM"
- Compound: "O=NNc1ccc(S(=O)(=O)c2ccccc2)cn1"
  Measured On: "HOP-62 NSCLC"
  TGI: "> 100 µM"
- Compound: "C=C1C(=O)O[C@H]2[C@H]1CC/C(Cn1cc(-c3cc(C(F)(F)F)cc(C(F)(F)F)c3)nn1)=C\\CC[C@@]1(C)O[C@@H]21"
  Measured On: "HOP-62 NSCLC"
  TGI: "3.31 µM"
- Compound: "CC1=C2C[C@H]3[C@@H](CC[C@@H]4CC(NS(C)(=O)=O)CC[C@@]43C)[C@@H]2CC[C@@]2(C1)O[C@@H]1C[C@H](C)CN[C@H]1[C@H]2C (stereo partly drawn)"
  Measured On: "HOP-62 NSCLC"
  TGI: "24.8 µM"
- Compound: "Nc1c(Br)cc(Br)c2c1[nH]c(=O)c1ccccc12"
  Measured On: "HOP-62 NSCLC"
  TGI: "6.39 µM"
- Compound: "COc1cc(C2c3cc(O)c(OC)cc3C3OCC2C3CO)ccc1O (stereo not drawn)"
  Measured On: "HOP-62 NSCLC"
  TGI: "> 100 µM"
- Compound: "COC(=O)C1=C(C(=O)ON)C2C=CC1(C(Cc1ccccc1)Nc1ccccc1)O2 (stereo not drawn)"
  Measured On: "HOP-62 NSCLC"
  TGI: "27.9 µM"
- Compound: "O=C1c2ccccc2NC(=O)C2C1C(c1ccccc1)CC2(O)c1ccccc1 (stereo not drawn)"
  Measured On: "HOP-62 NSCLC"
  TGI: "> 100 µM"
- Compound: "CCOC(=O)C12CCC(=O)C=C1[C@@H](C)C(=O)CC2 (stereo partly drawn)"
  Measured On: "HOP-62 NSCLC"
  TGI: "> 100 µM"
- Compound: "COc1ccc(C2CC(c3ccccc3)=Nc3c(-c4ccccc4)nnn32)cc1 (stereo not drawn)"
  Measured On: "HOP-62 NSCLC"
  TGI: "> 100 µM"
- Compound: "CCCCCC/C=C1\\CCC(CN2CCCC2)C1=O (stereo not drawn)"
  Measured On: "HOP-62 NSCLC"
  TGI: "34.2 µM"
- Compound: "O=C1c2ccccc2C(=O)[C@@]23O[C@@]12C1(Oc2cccc4cccc(c24)O1)[C@@H]1O[C@@H]1[C@@H]3O"
  Measured On: "HOP-62 NSCLC"
  TGI: "25.7 µM"
- Compound: "O=C(Nc1cccc(Cl)c1)c1ccc(NC2=C(Cl)C(=O)N(Cc3ccccc3)C2=O)cc1"
  Measured On: "HOP-62 NSCLC"
  TGI: "33 µM"
- Compound: "O=C(CC(C(=O)c1cccs1)c1ccsc1)c1cccs1 (stereo not drawn)"
  Measured On: "HOP-62 NSCLC"
  TGI: "> 100 µM"
- Compound: "CC(=O)O[C@H]1C(=O)[C@@]2(C)[C@H]([C@H](OC(=O)c3cccc(C(F)(F)F)c3)[C@]3(O)C[C@H](OC(=O)[C@H](O)[C@@H](NC(=O)c4ccccc4)c4ccccc4)C(C)=C1C3(C)C)[C@]1(OC(C)=O)CO[C@@H]1C[C@@H]2O"
  Measured On: "HOP-62 NSCLC"
  TGI: "> 14.2 µM"
